# maps each entry to its pIC50
tested-on: human DGKα (Homo sapiens (Human), UniProt P23743)
Sequence (P23743 whole entry, looked up): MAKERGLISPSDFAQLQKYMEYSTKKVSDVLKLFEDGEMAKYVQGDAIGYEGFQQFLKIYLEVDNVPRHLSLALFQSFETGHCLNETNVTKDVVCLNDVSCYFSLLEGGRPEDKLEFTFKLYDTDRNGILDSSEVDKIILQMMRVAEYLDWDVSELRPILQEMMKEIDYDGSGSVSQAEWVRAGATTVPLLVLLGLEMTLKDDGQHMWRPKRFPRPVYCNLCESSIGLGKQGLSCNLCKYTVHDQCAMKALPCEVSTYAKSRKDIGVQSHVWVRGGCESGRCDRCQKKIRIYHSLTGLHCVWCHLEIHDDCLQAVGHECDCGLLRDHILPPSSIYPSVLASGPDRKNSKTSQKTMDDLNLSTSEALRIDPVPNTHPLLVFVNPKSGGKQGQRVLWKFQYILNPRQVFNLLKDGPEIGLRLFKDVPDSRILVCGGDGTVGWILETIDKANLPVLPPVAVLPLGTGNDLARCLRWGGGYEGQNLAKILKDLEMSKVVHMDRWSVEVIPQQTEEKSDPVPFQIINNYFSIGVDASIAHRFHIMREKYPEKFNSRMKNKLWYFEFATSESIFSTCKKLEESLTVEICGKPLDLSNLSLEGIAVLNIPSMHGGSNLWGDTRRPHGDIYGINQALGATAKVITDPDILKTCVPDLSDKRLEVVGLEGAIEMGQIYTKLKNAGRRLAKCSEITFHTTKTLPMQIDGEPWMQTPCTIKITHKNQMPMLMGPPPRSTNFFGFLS
test-description: DGKα ADPGLO assay (detergent/lipid micelle substrate)
Format: biochemical
condition-description: truncated DGK alpha; read-out: DGK alpha ADPGLO (Truncated) IC50
Recall that pIC50 is obtained by taking minus log10 of the concentration measured in molar.

Consider the worked cases shown below.
                                   molecule  reported_result
0  CCC(c1ccc(OC(F)(F)F)cc1)N1C[C@H](CC)N(c2nc(=O)n(C)c3ccc(C#N)nc23)C[C@H]1CC (single isomer, unassigned) [Example 37]             6.92
1  CCC(c1ccc(OC(F)F)cc1)N1C[C@H](CC)N(c2nc(=O)n(C)c3ccc(C#N)nc23)C[C@H]1CC (stereo partly drawn) [Example 223]             6.89

Shift focus to the following entry.
Recorded result, CC[C@H]1CN(C(C)c2cnc(C(F)(F)F)nc2)[C@H](CC)CN1c1nc(=O)n(C)c2ccc(C#N)nc12 (stereo partly drawn) [Example 227] , pIC50: 5.61
